// reported GI50 per item
- System: OVCAR-5
- protocol.summary: NCI tumour cell line growth inhibition, 48 h
The source made the active and inactive calls. Rule as the data show it: active = GI50 up to about 1.1 µM and inactive = higher.

>  <molecule>
COc1ccccc1C(=O)c1c(NCc2ccccc2)c(=O)c1=O

>  <target>
OVCAR-5

>  <GI50>
> 100 µM (inactive)

$$$$
>  <molecule>
N#CC(C/C=C/c1ccccc1)NNC(=O)c1c(Cl)c(Cl)c(Cl)c(Cl)c1-c1nc2cc(C(=O)c3ccccc3)ccc2[nH]1 (stereo unspecified)

>  <target>
OVCAR-5

>  <GI50>
28.9 µM (inactive)

$$$$
>  <molecule>
Cc1cc(O)nc(CNC(=O)c2ccc3ccccc3c2)n1

>  <target>
OVCAR-5

>  <GI50>
> 100 µM (inactive)

$$$$
>  <molecule>
CCc1n[nH]c(=O)n1/N=C/c1c(O)ccc2ccccc12

>  <target>
OVCAR-5

>  <GI50>
> 100 µM (inactive)

$$$$
>  <molecule>
O=C1CCc2c(sc3ncnc(Nc4cccc(Br)c4)c23)C1

>  <target>
OVCAR-5

>  <GI50>
6.98 µM (inactive)

$$$$
>  <molecule>
CC(C)(Cl)C(Br)CC/C(=C/CBr)CBr.CC(C)(Cl)C(Br)CC/C(=C\CBr)CBr (stereo unspecified)

>  <target>
OVCAR-5

>  <GI50>
13.2 µM (inactive)

$$$$
>  <molecule>
COC(=O)NCCc1n[nH]c2c1C(=O)C=C(Nc1ccccc1)C2=O

>  <target>
OVCAR-5

>  <GI50>
29 µM (inactive)

$$$$
>  <molecule>
O=S(=O)(c1ccc(-c2nnc(-c3ccc(F)cc3)o2)cc1)c1ccc(-c2nnc(-c3ccc(F)cc3)o2)cc1

>  <target>
OVCAR-5

>  <GI50>
> 100 µM (inactive)

$$$$
>  <molecule>
COC(=O)c1ccccc1N(C(=O)c1ccccc1)c1ccccc1C

>  <target>
OVCAR-5

>  <GI50>
> 100 µM (inactive)

$$$$
>  <molecule>
N/C(=N\N/C=C1\C=Nc2cc(C(F)(F)F)ccc2C1=O)NO

>  <target>
OVCAR-5

>  <GI50>
> 10 µM (inactive)

$$$$
>  <molecule>
CCOc1ccc(NC(=O)/C(=C/c2ccccc2)C(C)=O)cc1

>  <target>
OVCAR-5

>  <GI50>
17.6 µM (inactive)

$$$$

###

- Tested on: HOP-92
- protocol.summary: NCI tumour cell line growth inhibition, 48 h
The source made the active and inactive calls. No stated cut-off is given here; in the data, active = GI50 up to about 1.1 µM and inactive = higher.
// reported GI50 per item

>  <compound>
Cn1c(=O)c(C#N)c(O)c2cc3ccccc3nc21

>  <GI50>
> 100 µM (inactive)

$$$$
>  <compound>
CCNc1c(C(=O)N(CC)CC)c(=O)[nH]c2ncccc12

>  <GI50>
> 100 µM (inactive)

$$$$
>  <compound>
C=C/C=C(\NC(=O)C(Cl)(Cl)Cl)[Si](C)(C)C

>  <GI50>
> 100 µM (inactive)

$$$$
>  <compound>
CC(C)/C(Cl)=N\OC(=O)Nc1ccc(S(N)(=O)=O)cc1

>  <GI50>
5.25 µM (inactive)

$$$$
>  <compound>
COc1ccc(-c2[nH]c(=O)n(C3OC(CO)C(O)C(O)C3O)c(=O)c2C#N)cc1 (centres undefined)

>  <GI50>
> 100 µM (inactive)

$$$$
>  <compound>
CCCC(=O)Oc1ccc(/C=N/NC(N)=S)nc1

>  <GI50>
> 100 µM (inactive)

$$$$
>  <compound>
Cn1cnc([N+](=O)[O-])c1[Se]c1nc(N)nc2c1ncn2C1OC(CO)C(O)C1O (centres undefined)

>  <GI50>
> 100 µM (inactive)

$$$$
>  <compound>
O=C(CCCCCCCCC(=O)NN1C(=O)/C(=C\c2ccc(O)c(O)c2)SC1c1ccc(Cl)cc1)NN1C(=O)/C(=C\c2ccc(O)c(O)c2)SC1c1ccc(Cl)cc1 (centres undefined)

>  <GI50>
11.5 µM (inactive)

$$$$
>  <compound>
COc1cc(/C=C2\N=C(c3ccccc3)N(C3Nc4cc5c(cc4S3)NC(N3C(=O)/C(=C/c4cc(OC)c(OC)c(OC)c4)N=C3c3ccccc3)S5)C2=O)cc(OC)c1OC (centres undefined)

>  <GI50>
> 100 µM (inactive)

$$$$
>  <compound>
CCN(CC)CCC(=O)N1CCc2c([nH]c3ccccc23)C1c1cccnc1 (centres undefined)

>  <GI50>
68.9 µM (inactive)

$$$$
>  <compound>
COc1ccc2c(c1)O[C@@H]1c3ccc(OC)cc3OC[C@H]21

>  <GI50>
17.1 µM (inactive)

$$$$
>  <compound>
O=c1oc2ccccc2[n+]([O-])c1-c1ccccc1

>  <GI50>
> 100 µM (inactive)

$$$$
>  <compound>
O=C(Cc1ccc(F)cc1)NC1=C(Cl)C(=O)c2ccccc2C1=O

>  <GI50>
1.69 µM (inactive)

$$$$
>  <compound>
Cn1c2ccccc2c2c(-c3ccccc3)[n+]3ccccc3nc21

>  <GI50>
14.6 µM (inactive)

$$$$
>  <compound>
CN1C(=O)[C@H](c2c[nH]c3ccccc23)[C@H](c2c[nH]c3ccccc23)C1=O

>  <GI50>
> 35.9 µM (inactive)

$$$$
>  <compound>
COC(=O)[C@@H]1C=C[C@H](OC2OC(COC(C)=O)C(OC(C)=O)C(OC(C)=O)C2OC(C)=O)n2c(=O)n(-c3ccccc3)c(=O)n21 (some centres undefined)

>  <GI50>
1.77 µM (inactive)

$$$$
>  <compound>
CN1CCC23c4c5ccc(Oc6nnnn6-c6ccccc6)c4OC2c2[nH]c4ccccc4c2CC3(O)C1C5 (centres undefined)

>  <GI50>
2.07 µM (inactive)

$$$$
>  <compound>
COc1ccc(-c2nc(SCC(=O)N/N=C/c3ccc(N(C)C)cc3)[nH]c2-c2ccc(OC)cc2)cc1

>  <GI50>
> 100 µM (inactive)

$$$$
>  <compound>
CN1C(=O)C(C(=O)Nc2ccccn2)C2C[C@@]1(C)Oc1ccccc12 (some centres undefined)

>  <GI50>
> 100 µM (inactive)

$$$$
